- MEASUREMENT_PROTOCOL: chemical genetic growth profiling, strain panel (AID 1159580);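 note: tested at 20 µM; growth read once vehicle control cultures reached saturation at 30 °C; 1 = growth at the plate median or of vehicle wells; lower values mean less growth of the strain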
- STUDY_CONDITIONS: S. cerevisiae deletion strains, growth OD, locus YOR270C, strain vph1, stronger effect = lower value
In all, about 5,500 compounds went through this assay and about 2,000 (36%) were called active. Inconclusive results (about 18%) are left out. The list shows a part of the results.
Reported normalized growth values follow for various compounds
Respond numerically, and do not add a unit to the figure.

COMPOUND	normalized growth
C=CC(C1=CC(=O)C=CC1=O)c1ccccc1 (stereo not drawn)	0.973
O=C1O[C@H](C(O)CO)C(O)=C1O (stereo partly drawn)	0.987
CC(C)NCC(O)c1ccc2ccccc2c1 (stereo not drawn)	1.02
COc1cccc(/C=C/C(=O)O)c1C(C)C	1.02
O=c1[nH]c(=O)n(C2C[C@@H](O)[C@@H](CO)O2)cc1F (stereo partly drawn)	0.994
O=C(O[C@@H]1Cc2c(O)cc(O)cc2O[C@@H]1c1cc(O)c(O)c(O)c1-c1c([C@H]2Oc3cc(O)cc(O)c3C[C@H]2O)cc(O)c(O)c1O)c1cc(O)c(O)c(O)c1	0.977

What measured normalized growth goes with C1CNCCN1 ?
1.01

Recorded normalized growth for C=CC(C1=CC(=O)C(OC)=CC1=O)c1ccc(O)cc1 (stereo not drawn) , please?
1.02

Need normalized growth, item C1CCN2C[C@@H]3C[C@H](CN4CCCC[C@@H]34)[C@H]2C1
1.05

Looking for the measured normalized growth of CC(C)(C)NC[C@@H](O)COc1nsnc1N1CCOCC1 , can you help?
1.04
